test-readout: melting point

# annotated cases, reported melting point shown
O=C(Nc1ccc(F)cc1)NC1CCN(S(=O)(=O)c2ccc(Cl)cc2)CC1 | 160 to 162 °C
O=C(Nc1ccc(Cl)cc1)NC1CCN(C(=O)c2ccc(N3CCOCC3)cc2)CC1 | 303 to 308 °C
O=C(Nc1cccc(F)c1)NC1CCN(S(=O)(=O)c2cccc(C(F)(F)F)c2)CC1 | 86 to 88 °C
O=C(Nc1ccc(C(F)(F)F)cc1)NC1CCN(S(=O)(=O)CCCO)CC1 | 200 to 205 °C
CC(C)C(=O)N1CCC(NC(=O)Nc2ccc(Br)cc2)CC1 | 193 to 204 °C
CC(C)(Oc1ccc(C(=O)N2CCC(NC(=O)Nc3ccc(C(F)(F)F)cc3)CC2)cc1)C(=O)O | 197 to 199 °C
O=C(Nc1ccc(C(F)(F)F)cc1)NC1CCN(C(=O)N2CCOCC2)CC1 | 234 to 236 °C

The compound listed as CC(C)S(=O)(=O)N1CCC(NC(=O)Nc2ccc(Br)cc2)CC1 has a reported melting point of 240 to 242 °C

----------
test system: soluble epoxide hydrolase (sEH); experiment: Fluorescent assay for mouse and human soluble epoxide hydrolase (CMNPC substrate); type: biochemical, mouse or human, not specified; conditions: Conc 200 nM
test-readout: % Inhibition (%)
Answers are plain numbers, in %.

CC(C)(C)[S+]([O-])N1CCC(NC(=O)Nc2ccc(C(F)(F)F)cc2)CC1 (centres unmarked) | 94
CC(C)(O)CCC(=O)N1CCC(NC(=O)Nc2ccc(C(F)(F)F)cc2)CC1 | 93
CC(C)(C)CC(=O)N1CCC(NC(=O)Nc2ccc(C(F)(F)F)cc2)CC1 | 100
CC(C)(C)S(=O)(=O)N1CCC(NC(=O)Nc2ccc(C(F)(F)F)cc2)CC1 | 97
O=C(Nc1ccc(C(F)(F)F)cc1)NC1CCN(C(=O)CCCO)CC1 | 100
O=C(Nc1ccc(C(F)(F)F)cc1)NC1CCN(C(=O)CCO)CC1 | 90
O=C(Nc1ccc(C(F)(F)F)cc1)NC1CCN(S(=O)(=O)CCCO)CC1 | 98

The compound listed as CC(C)C(=O)N1CCC(NC(=O)Nc2ccc(C(F)(F)F)cc2)CC1 has a reported % Inhibition of 97

----------
tested on: soluble epoxide hydrolase (sEH); assay: Fluorescent assay for mouse and human soluble epoxide hydrolase (CMNPC substrate); type: biochemical, mouse or human, not specified; conditions: Conc 50 nM
test-readout: % Inhibition (%)
Answers are plain numbers, in %.

O=C(Nc1ccc(C(F)(F)F)cc1)NC1CCN(S(=O)(=O)c2cccc(C(F)(F)F)c2)CC1 [Compound 20] | 96
O=C(Nc1ccc(C(F)(F)F)cc1)NC1CCN(C(=O)c2ccc(C(=O)O)cc2)CC1 [Compound 11] | 98
O=C(Nc1cccc(C(F)(F)F)c1)NC1CCN(S(=O)(=O)c2ccccc2)CC1 [Compound 26] | 90
O=C(Nc1ccc(C(F)(F)F)cc1)NC1CCN(S(=O)(=O)c2ccc(Cl)cc2)CC1 [Compound 18] | 90
O=C(Nc1ccc(F)cc1)NC1CCN(S(=O)(=O)c2ccccc2)CC1 [Compound 13] | 79

// each listed compound needs a value for % Inhibition
1. O=C(Nc1ccc(Cl)cc1)NC1CCN(S(=O)(=O)c2ccc(C(=O)O)cc2)CC1 [Compound 15]
2. O=C(Nc1ccc(Cl)cc1)NC1CCN(C(=O)c2ccc(N3CCOCC3)cc2)CC1 [Compound 36]
3. O=C(Nc1cccc(C(F)(F)F)c1)NC1CCN(S(=O)(=O)c2ccc(Cl)cc2)CC1 [Compound 30]
4. CS(=O)(=O)N1CCC(NC(=O)Nc2cccc(C(F)(F)F)c2)CC1 [Compound 24]
5. O=C(Nc1ccc(C(F)(F)F)cc1)NC1CCN(C(=O)c2ccc(N3CCOCC3)cc2)CC1 [Compound 37]
6. CC(=O)N1CCC(NC(=O)Nc2cccc(C(F)(F)F)c2)CC1 [Compound 25]
7. CC(C)CC(=O)N1CCC(NC(=O)Nc2ccc(C(F)(F)F)cc2)CC1 [Compound 6]
8. O=C(Nc1cccc(C(F)(F)F)c1)NC1CCN(S(=O)(=O)c2ccc(C(F)(F)F)cc2)CC1 [Compound 29]

Return:
1. 75
2. 95
3. 90
4. 86
5. 98
6. 68
7. 94
8. 95

----------
tested on: soluble epoxide hydrolase (sEH); experiment: Fluorescent assay for mouse and human soluble epoxide hydrolase (CMNPC substrate); type: biochemical, mouse or human, not specified; settings: Conc 500 nM
Exercise: state measured % Inhibition for each of the compounds provided.

CC(=O)N1CCC(NC(=O)Nc2ccc(F)cc2)CC1 [Compound 21] | 74%

// each listed compound needs a value for % Inhibition
1. O=C(Nc1ccc(Cl)cc1)NC1CCN(C(=O)Cc2c[nH]cn2)CC1 [Compound 34]
2. CS(=O)(=O)N1CCC(NC(=O)Nc2cccc(F)c2)CC1 [Compound 31]

Return:
["80%", "80%"]

// each listed compound needs a value for % Inhibition
1. O=C(Nc1ccc(F)cc1)NC1CCN(C(=O)c2cccnc2)CC1 [Compound 7]
2. CC(=O)N1CCC(NC(=O)Nc2cccc(F)c2)CC1 [Compound 32]
3. O=C(Nc1ccc(F)cc1)NC1CCN(S(=O)(=O)c2ccc(Cl)cc2)CC1 [Compound 19]
4. O=C(Nc1ccc(F)c(F)c1)NC1CCN(C(=O)CCCN2CCOCC2)CC1 [Compound 2]

Return:
1: 89%; 2: 80%; 3: 85%; 4: 70%

----------
Exercise: state measured melting point for each of the compounds provided.

COCC(=O)N1CCC(NC(=O)Nc2ccc(C(F)(F)F)cc2)CC1 [Compound 51] | 214 to 215 °C
CC(=O)N1CCC(NC(=O)Nc2ccc(F)cc2)CC1 [Compound 21] | 146 to 148 °C
O=C(Nc1cccc(C(F)(F)F)c1)NC1CCN(S(=O)(=O)c2ccc(Cl)cc2)CC1 [Compound 30] | 116 to 118 °C

// each listed compound needs a value for melting point
1. O=C(Nc1cccc(F)c1)NC1CCN(S(=O)(=O)c2ccc(Cl)cc2)CC1 [Compound 23]
2. Cc1nc(C(=O)N2CCC(NC(=O)Nc3ccc(C(F)(F)F)cc3)CC2)c(C)o1 [Compound 39]
3. CC(C)(O)CCC(=O)N1CCC(NC(=O)Nc2ccc(C(F)(F)F)cc2)CC1 [Compound 47]
4. O=C(Nc1ccc(C(F)(F)F)cc1)NC1CCN(C(=O)c2ccc(N3CCOCC3)cc2)CC1 [Compound 37]
5. CC(=O)N1CCC(NC(=O)Nc2ccc(Br)cc2)CC1 [Compound 43]
6. CC(C)(C)C(=O)N1CCC(NC(=O)Nc2ccc(C(F)(F)F)cc2)CC1 [Compound 41]
7. CC(C)(C)OC(=O)C(C)(C)Oc1ccc(C(=O)N2CCC(NC(=O)Nc3ccc(C(F)(F)F)cc3)CC2)cc1 [Compound 38]

Return:
1: 245 to 248 °C; 2: 217 to 219 °C; 3: 184 to 186 °C; 4: 312 to 315 °C; 5: 213 to 216 °C; 6: 263 to 265 °C; 7: 206 to 208 °C

// each listed compound needs a value for melting point
1. CS(=O)(=O)N1CCC(NC(=O)Nc2cccc(F)c2)CC1 [Compound 31]
2. CC(C)(C)[S+]([O-])N1CCC(NC(=O)Nc2ccc(C(F)(F)F)cc2)CC1 (stereo not drawn) [Compound 52]
3. O=C(Nc1ccc(C(F)(F)F)cc1)NC1CCN(C(=O)CCO)CC1 [Compound 49]
4. CC(C)(C)S(=O)(=O)N1CCC(NC(=O)Nc2ccc(C(F)(F)F)cc2)CC1 [Compound 54]
5. CS(=O)(=O)N1CCC(NC(=O)Nc2ccc(F)cc2)CC1 [Compound 27]
6. CC(=O)N1CCC(NC(=O)Nc2cccc(F)c2)CC1 [Compound 32]
7. O=C(Nc1ccc(C(F)(F)F)cc1)NC1CCN(C(=O)CCCO)CC1 [Compound 53]
8. O=C(Nc1cccc(F)c1)NC1CCN(S(=O)(=O)c2ccccc2)CC1 [Compound 22]

Return:
["212 to 214 °C", "229 to 230 °C", "158 to 160 °C", "260 to 261 °C", "186 to 188 °C", "112 to 114 °C", "175 to 182 °C", "186 to 188 °C"]

----------
test system: soluble epoxide hydrolase (sEH); assay: Fluorescent assay for mouse and human soluble epoxide hydrolase (CMNPC substrate); type: biochemical, mouse or human, not specified; conditions: Conc 50 nM
Returns one of label 1 or label 0; label 1 when % Inhibition is >= 90%.

Solved cases (6 shown):
O=C(Nc1ccc(C(F)(F)F)cc1)NC1CCN(C(=O)c2cccnc2)CC1 [Compound 8] | label 1
CC(C)S(=O)(=O)N1CCC(NC(=O)Nc2ccc(C(F)(F)F)cc2)CC1 [Compound 42] | label 1
CC(C)(Oc1ccc(C(=O)N2CCC(NC(=O)Nc3ccc(C(F)(F)F)cc3)CC2)cc1)C(=O)O [Compound 40] | label 0
O=C(Nc1ccc(C(F)(F)F)cc1)NC1CCN(S(=O)(=O)c2ccc(C(=O)O)cc2)CC1 [Compound 16] | label 0
O=C(Nc1ccc(C(F)(F)F)cc1)NC1CCN(C(=O)c2ccccn2)CC1 [Compound 9] | label 1
O=C(Nc1ccc(F)cc1)NC1CCN(C(=O)c2ccc(C(=O)O)cc2)CC1 [Compound 10] | label 0

Attention now turns to another entry.
Enquiry: Answer whether % Inhibition of O=C(Nc1ccc(C(F)(F)F)cc1)NC1CCN(C(=O)Cc2c[nH]cn2)CC1 [Compound 33] is greater than or equal to 90%.
Return: label 0
